# System: MDCK cells
# Run Conditions: concentration decreasing cell number by 50%
Cut-off 500 µM on CD50 ± SD MDCK: below means fulfilled, at or above means not fulfilled.

Consider the following illustrative entries.
# Compound, Group
rows = [
    ("CCCCCc1ccc(-c2cc3cn(COCCO)c(=O)[nH]c-3n2)cc1", "fulfilled"),
    ("CCCCCc1ccc(-c2cc3cn([C@@H]4O[C@H](CO)[C@@H](O)[C@H]4O)c(=O)nc3o2)cc1", "not fulfilled"),
    ("CC(C)(C)c1ccc(Oc2cn(C3C=CC(O)C3)c(=O)n(C3C=CC(O)C3)c2=O)cc1 (stereo not shown)", "fulfilled"),
    ("CC(C)(C)c1ccc(Nc2cn(C3C=CC(O)C3)c(=O)n(C3C=CC(O)C3)c2=O)cc1 (stereo not shown)", "fulfilled"),
    ("CCCCCc1ccc(-c2cc3cn(C4C=CC(O)C4)c(=O)nc3o2)cc1 (stereo not shown)", "fulfilled"),
    ("CCCCCc1ccc(-c2cc3cn(COCCO)c(=O)nc3o2)cc1", "not fulfilled"),
]

Enquiry: Consider "CCCCCc1ccc(-c2cc3cn([C@@H]4O[C@H](CO)[C@@H](O)[C@H]4O)c(=O)[nH]c-3n2)cc1" . Does its CD50 ± SD MDCK lie strictly below 500 µM?
Return: not fulfilled

Enquiry: Please answer likewise for CCCCCc1ccc(-c2cc3cn(C4C=CC(O)C4)c(=O)nc3[nH]2)cc1 (stereo not shown)
Return: fulfilled

Enquiry: Please answer likewise for CC(C)(C)c1ccc(Nc2cn(C3C=CC(O)C3)c(=O)[nH]c2=O)cc1 (stereo not shown)
Return: not fulfilled

Enquiry: Please answer likewise for CC(C)(C)c1ccc(-c2cc3cn(C4C=CC(O)C4)c(=O)nc3[nH]2)cc1 (stereo not shown)
Return: fulfilled

Enquiry: Please answer likewise for CC(C)(C)c1ccc(Oc2cn(C3C=CC(O)C3)c(=O)[nH]c2=O)cc1 (stereo not shown)
Return: not fulfilled

Enquiry: Please answer likewise for "CC(C)(C)c1ccc(-c2cc3cn(COCCO)c(=O)[nH]c-3n2)cc1"
Return: fulfilled

###

Would you kindly list log reduction at 50 µM for each of these compounds?
# System: SARS-CoV-2
# Test Summary: microbe, parasite or virus in culture
# Format: cell-based, SARS-CoV-2 (hCoV-19/Russia/Moscow-PMVL-12/2020 strain)
# Run Conditions: Severe acute respiratory syndrome coronavirus 2, Vero C1008, 96 h; read-out: Δlog10(RNA), logarithmic change in the SARS-CoV-2 RNA levels
Answers are plain numbers.

# Compound, Target Or Test System, Assay Value
rows = [
    ("CC(C)(C)c1ccc(Nc2cn(C3C=CC(O)C3)c(=O)n(C3C=CC(O)C3)c2=O)cc1 (stereo not shown)", "SARS-CoV-2", 0.8),
    ("CCCCCc1ccc(-c2cc3cn(COCCO)c(=O)nc3o2)cc1", "SARS-CoV-2", 0.3),
    ("CCCCCc1ccc(-c2cc3cn([C@@H]4O[C@H](CO)[C@@H](O)[C@H]4O)c(=O)nc3o2)cc1", "SARS-CoV-2", 0.2),
]

Moving on to another compound below.
Enquiry: If you can, please state the reported log reduction at 50 µM value of "CCCCCc1ccc(-c2cc3cn([C@@H]4O[C@H](CO)[C@@H](O)[C@H]4O)c(=O)[nH]c-3n2)cc1" .
Return: 0.2

###

# Test system: SARS-CoV-2
# Test Summary: microbe, parasite or virus in culture
# Type: cell-based, SARS-CoV-2 (hCoV-19/Russia/Moscow-PMVL-12/2020 strain)
# Run Conditions: summary of Table 1
Readout Name: Effect on SARS-CoV-2 infectivity, TCID50 in Vero cells

# Smiles Notation, Assay Value
data = [
    ("CCCCCc1ccc(-c2cc3cn(COCCO)c(=O)[nH]c-3n2)cc1", "inactive"),
    ("CCCCCc1ccc(-c2cc3cn([C@@H]4O[C@H](CO)[C@@H](O)[C@H]4O)c(=O)[nH]c-3n2)cc1", "inactive"),
    ("CCCCCc1ccc(-c2cc3cn(COCCO)c(=O)nc3o2)cc1", "stronger effects"),
    ("CC(C)(C)c1ccc(-c2cc3cn(COCCO)c(=O)[nH]c-3n2)cc1", "stronger effects"),
]

###

Would you kindly list log reduction at 20 µM for each of these molecules?
# Test system: SARS-CoV-2
# Test Summary: microbe, parasite or virus in culture
# Assay type: cell-based, SARS-CoV-2 (hCoV-19/Russia/Moscow-PMVL-12/2020 strain)
# Run Conditions: Severe acute respiratory syndrome coronavirus 2, Vero C1008; measured at 20 µM; Vero E6, vs DMSO-treated control; read-out: Δlog10(TCID50) SARS-CoV-2
Give bare numbers.

Below: 4 molecules and their reported log reduction at 20 µM.
# Molecule, Assay Value
measured = [
    ("CC(C)(C)c1ccc(Oc2cn(C3C=CC(O)C3)c(=O)[nH]c2=O)cc1 (centres unmarked) [Compound 11]", 1),
    ("CCCCCc1ccc(-c2cc3cn(C4C=CC(O)C4)c(=O)nc3[nH]2)cc1 (centres unmarked) [Compound 1]", 1),
    ("CCCCCc1ccc(-c2cc3cn([C@@H]4O[C@H](CO)[C@@H](O)[C@H]4O)c(=O)nc3o2)cc1 [Compound 4]", 0.5),
    ("CCCCCc1ccc(-c2cc3cn(C4C=CC(O)C4)c(=O)nc3o2)cc1 (centres unmarked) [Compound 3]", 0.5),
]

Enquiry: If you can, please state the reported log reduction at 20 µM value of CC(C)(C)c1ccc(-c2cc3cn(C4C=CC(O)C4)c(=O)nc3[nH]2)cc1 (centres unmarked) [Compound 2] .
Return: 0.5

###

# Tested on: SARS-CoV-2
# Test Summary: microbe, parasite or virus in culture
# Assay type: cell-based, SARS-CoV-2 (hCoV-19/Russia/Moscow-PMVL-12/2020 strain)
# Run Conditions: Severe acute respiratory syndrome coronavirus 2, Vero C1008, 96 h; read-out: Δlog10(RNA), logarithmic change in the SARS-CoV-2 RNA levels
Readout Name: log reduction at 50 µM
Answers are plain numbers.

Below: 2 molecules and their reported log reduction at 50 µM.
# Molecule, Target Or Test System, log reduction at 50 µM
measured = [
    ("CC(C)(C)c1ccc(-c2cc3cn(COCCO)c(=O)[nH]c-3n2)cc1", "SARS-CoV-2", 0.4),
    ("CC(C)(C)c1ccc(Oc2cn(C3C=CC(O)C3)c(=O)[nH]c2=O)cc1 (stereo not shown)", "SARS-CoV-2", 0.7),
]

Quick batch: log reduction at 50 µM for everything below.
1. CCCCCc1ccc(-c2cc3cn(COCCO)c(=O)[nH]c-3n2)cc1
2. CC(C)(C)c1ccc(Oc2cn(C3C=CC(O)C3)c(=O)n(C3C=CC(O)C3)c2=O)cc1 (stereo not shown)

Return:
[0.4, 0.8]

###

# System: Vero E6 cells
# Run Conditions: African green monkey (Chlorocebus aethiops)
Labels assigned by CD50 ± SD Vero E6 range: small value (below 200 µM), mid value (200 µM to below 400 µM), large value (400 µM or more)

Enquiry: Category of CCCCCc1ccc(-c2cc3cn(COCCO)c(=O)[nH]c-3n2)cc1 [Compound 7] :
Return: mid value

Enquiry: Please answer likewise for CC(C)(C)c1ccc(Nc2cn(C3C=CC(O)C3)c(=O)[nH]c2=O)cc1 (stereo not drawn) [Compound 8]
Return: large value

Enquiry: Please answer likewise for CC(C)(C)c1ccc(-c2cc3cn(C4C=CC(O)C4)c(=O)nc3[nH]2)cc1 (stereo not drawn) [Compound 2]
Return: small value

Enquiry: Please answer likewise for CC(C)(C)c1ccc(Oc2cn(C3C=CC(O)C3)c(=O)[nH]c2=O)cc1 (stereo not drawn) [Compound 11]
Return: large value

Enquiry: Please answer likewise for CCCCCc1ccc(-c2cc3cn(C4C=CC(O)C4)c(=O)nc3o2)cc1 (stereo not drawn) [Compound 3]
Return: large value

Enquiry: Please answer likewise for CC(C)(C)c1ccc(-c2cc3cn(COCCO)c(=O)[nH]c-3n2)cc1 [Compound 14]
Return: mid value

Enquiry: Please answer likewise for CC(C)(C)c1ccc(Oc2cn(C3C=CC(O)C3)c(=O)n(C3C=CC(O)C3)c2=O)cc1 (stereo not drawn) [Compound 10]
Return: large value

Enquiry: Please answer likewise for CCCCCc1ccc(-c2cc3cn([C@@H]4O[C@H](CO)[C@@H](O)[C@H]4O)c(=O)[nH]c-3n2)cc1 [Compound 6]
Return: large value

Enquiry: Please answer likewise for CC(C)(C)c1ccc(Nc2cn(C3C=CC(O)C3)c(=O)n(C3C=CC(O)C3)c2=O)cc1 (stereo not drawn) [Compound 9]
Return: mid value

Enquiry: Please answer likewise for CCCCCc1ccc(-c2cc3cn(C4C=CC(O)C4)c(=O)nc3[nH]2)cc1 (stereo not drawn) [Compound 1]
Return: small value

Enquiry: Please answer likewise for CCCCCc1ccc(-c2cc3cn([C@@H]4O[C@H](CO)[C@@H](O)[C@H]4O)c(=O)nc3o2)cc1 [Compound 4]
Return: large value
